Collected inhibition at 1 µM values appear next to each entry.
- System name: FGFR1 kinase (Homo sapiens, UniProt P11362)
- Construct: purchased Millipore (KinaseProfiler Service)
- Sequence (P11362 22-822): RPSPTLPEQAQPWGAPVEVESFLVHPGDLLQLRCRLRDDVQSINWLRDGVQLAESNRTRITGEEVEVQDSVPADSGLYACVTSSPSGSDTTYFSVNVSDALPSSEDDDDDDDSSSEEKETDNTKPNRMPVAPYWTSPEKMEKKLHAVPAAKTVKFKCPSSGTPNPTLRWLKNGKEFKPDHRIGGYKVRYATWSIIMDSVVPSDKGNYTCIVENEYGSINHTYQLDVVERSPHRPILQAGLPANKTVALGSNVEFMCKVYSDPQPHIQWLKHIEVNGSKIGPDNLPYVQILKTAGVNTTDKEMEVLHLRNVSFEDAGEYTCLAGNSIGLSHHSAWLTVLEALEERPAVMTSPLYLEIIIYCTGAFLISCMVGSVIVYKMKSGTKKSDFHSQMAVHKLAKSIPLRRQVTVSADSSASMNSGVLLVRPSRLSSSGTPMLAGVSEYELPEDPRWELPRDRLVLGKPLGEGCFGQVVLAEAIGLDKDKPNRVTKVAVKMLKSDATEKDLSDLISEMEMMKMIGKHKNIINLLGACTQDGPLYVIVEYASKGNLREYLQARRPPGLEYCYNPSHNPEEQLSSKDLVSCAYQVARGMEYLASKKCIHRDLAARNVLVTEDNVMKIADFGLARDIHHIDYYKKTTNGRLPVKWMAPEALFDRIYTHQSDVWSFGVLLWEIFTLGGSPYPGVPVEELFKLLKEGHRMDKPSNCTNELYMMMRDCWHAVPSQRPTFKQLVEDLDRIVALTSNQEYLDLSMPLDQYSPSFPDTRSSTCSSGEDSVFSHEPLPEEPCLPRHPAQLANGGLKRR
- Run description: KinaseProfiler kinase inhibition assay, FGFR1
- Format: biochemical
- Experimental setup: 1 μM compound
Measured quantity: inhibition at 1 µM (%)

[
  {
    "Molecule": "Cc1cc2c(F)c(Oc3ncnc(Nc4cc(C5CC5)n[nH]4)c3F)ccc2[nH]1 [Compound 32]",
    "Measured quantity": "inhibition at 1 µM",
    "Units text": "%",
    "Recorded result": 40
  },
  {
    "Molecule": "CCN1CCN(c2ccc(Nc3ncnc(Oc4ccc5[nH]c(C)cc5c4F)c3C#N)cc2)CC1 [Compound 53]",
    "Measured quantity": "inhibition at 1 µM",
    "Units text": "%",
    "Recorded result": 100
  },
  {
    "Molecule": "CC(=O)N1CCN(c2ccc(Nc3ncnc(Oc4ccc5[nH]c(C)cc5c4F)c3F)cc2)CC1 [Example 26]",
    "Measured quantity": "inhibition at 1 µM",
    "Units text": "%",
    "Recorded result": 46
  },
  {
    "Molecule": "Cc1cc2c(F)c(Oc3cc(Nc4cc(-c5ccccn5)[nH]n4)ncn3)ccc2[nH]1 [Example 6]",
    "Measured quantity": "inhibition at 1 µM",
    "Units text": "%",
    "Recorded result": 95
  },
  {
    "Molecule": "CCN1CCN(c2ccc(Nc3ncnc(Oc4ccc5[nH]c(C)cc5c4F)c3C#N)nc2)CC1 [Compound 55]",
    "Measured quantity": "inhibition at 1 µM",
    "Units text": "%",
    "Recorded result": 99
  },
  {
    "Molecule": "Cc1cc2c(F)c(Oc3ncnc(Nc4ccc(N5CCN(C)CC5)cc4)c3Cl)ccc2[nH]1 [Compound 35]",
    "Measured quantity": "inhibition at 1 µM",
    "Units text": "%",
    "Recorded result": 96
  },
  {
    "Molecule": "CCN1CCN(c2ccc(Nc3ncnc(Oc4ccc5[nH]c(C)cc5c4F)c3F)nc2)CC1 [Example 29]",
    "Measured quantity": "inhibition at 1 µM",
    "Units text": "%",
    "Recorded result": 92
  },
  {
    "Molecule": "CC(=O)Nc1ccc(Nc2cc(Oc3ccc4[nH]c(C)cc4c3F)ncn2)cc1 [Example 7]",
    "Measured quantity": "inhibition at 1 µM",
    "Units text": "%",
    "Recorded result": 96
  },
  {
    "Molecule": "Cc1cc2c(F)c(Oc3cc(Nc4cccc(N5CCOCC5)c4)ncn3)ccc2[nH]1 [Example 8]",
    "Measured quantity": "inhibition at 1 µM",
    "Units text": "%",
    "Recorded result": 97
  },
  {
    "Molecule": "Cc1cc2c(F)c(Oc3ncnc(Nc4ccc(N5CCN(C)CC5)cn4)c3F)ccc2[nH]1 [Example 27]",
    "Measured quantity": "inhibition at 1 µM",
    "Units text": "%",
    "Recorded result": 85
  },
  {
    "Molecule": "CCN1CCN(c2ccc(Nc3ncnc(Oc4ccc5[nH]c(C)cc5c4F)c3C(N)=O)cc2)CC1 [Compound 68]",
    "Measured quantity": "inhibition at 1 µM",
    "Units text": "%",
    "Recorded result": 100
  },
  {
    "Molecule": "CCN1CCN(c2ccc(Nc3cc(Oc4ccc5[nH]c(C)cc5c4F)ncn3)cc2)CC1 [Example 3]",
    "Measured quantity": "inhibition at 1 µM",
    "Units text": "%",
    "Recorded result": 102
  },
  {
    "Molecule": "CCN1CCN(c2ccc(Nc3ncnc(Oc4cc(F)c5[nH]c(C)cc5c4F)c3C#N)cc2)CC1 [Compound 60]",
    "Measured quantity": "inhibition at 1 µM",
    "Units text": "%",
    "Recorded result": 100
  },
  {
    "Molecule": "CCN1CCN(c2ccc(Nc3ncnc(Oc4ccc5[nH]c(C)cc5c4F)c3F)cc2)CC1 [Example 25]",
    "Measured quantity": "inhibition at 1 µM",
    "Units text": "%",
    "Recorded result": 96
  }
]

====

Collected inhibition at 1 µM values appear next to each entry.
- System name: Tie2 (Homo sapiens)
- Construct: purchased Millipore (KinaseProfiler Service)
- Sequence (Q02763 23-1124): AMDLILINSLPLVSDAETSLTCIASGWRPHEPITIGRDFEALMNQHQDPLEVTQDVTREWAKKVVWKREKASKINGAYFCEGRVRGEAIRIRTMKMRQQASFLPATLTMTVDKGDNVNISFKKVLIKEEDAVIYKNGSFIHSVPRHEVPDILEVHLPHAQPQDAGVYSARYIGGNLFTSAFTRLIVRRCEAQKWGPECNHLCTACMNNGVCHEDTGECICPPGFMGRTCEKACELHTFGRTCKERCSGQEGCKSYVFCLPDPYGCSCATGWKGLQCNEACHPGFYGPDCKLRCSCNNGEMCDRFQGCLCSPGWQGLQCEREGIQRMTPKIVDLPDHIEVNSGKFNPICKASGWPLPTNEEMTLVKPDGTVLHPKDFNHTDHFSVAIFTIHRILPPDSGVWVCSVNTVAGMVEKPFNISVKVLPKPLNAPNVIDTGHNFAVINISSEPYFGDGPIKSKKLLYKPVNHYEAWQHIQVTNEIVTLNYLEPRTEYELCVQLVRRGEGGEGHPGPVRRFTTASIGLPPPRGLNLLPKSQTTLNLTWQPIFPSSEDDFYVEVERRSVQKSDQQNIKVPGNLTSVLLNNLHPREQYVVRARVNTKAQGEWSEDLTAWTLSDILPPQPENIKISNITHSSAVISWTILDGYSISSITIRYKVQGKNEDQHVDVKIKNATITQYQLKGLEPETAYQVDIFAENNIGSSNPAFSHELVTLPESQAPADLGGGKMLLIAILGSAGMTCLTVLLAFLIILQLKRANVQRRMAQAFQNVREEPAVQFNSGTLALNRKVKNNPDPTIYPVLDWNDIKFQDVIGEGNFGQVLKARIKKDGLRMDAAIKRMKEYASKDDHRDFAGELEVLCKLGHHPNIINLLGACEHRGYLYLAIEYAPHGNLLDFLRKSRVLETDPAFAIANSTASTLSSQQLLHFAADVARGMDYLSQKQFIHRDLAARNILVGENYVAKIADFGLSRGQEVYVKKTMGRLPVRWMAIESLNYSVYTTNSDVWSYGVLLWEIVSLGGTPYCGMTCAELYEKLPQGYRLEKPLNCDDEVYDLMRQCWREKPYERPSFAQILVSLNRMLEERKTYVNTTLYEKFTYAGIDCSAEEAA
- Run description: KinaseProfiler kinase inhibition assay, Tie2
- Format: biochemical
- Experimental setup: 1 μM compound
Measured quantity: inhibition at 1 µM

[
  {
    "Input smiles": "Cc1cc2c(F)c(Oc3cc(Nc4ccc(N5CCNCC5)cc4)ncn3)cc(F)c2[nH]1",
    "Measured quantity": "inhibition at 1 µM",
    "Recorded result": "82%"
  },
  {
    "Input smiles": "Cc1cc2c(F)c(Oc3cc(Nc4cc(-c5ccccn5)[nH]n4)ncn3)ccc2[nH]1",
    "Measured quantity": "inhibition at 1 µM",
    "Recorded result": "59%"
  },
  {
    "Input smiles": "Cc1cc2c(F)c(Oc3ncnc(Nc4cc(C5CC5)n[nH]4)c3F)ccc2[nH]1",
    "Measured quantity": "inhibition at 1 µM",
    "Recorded result": "-9%"
  },
  {
    "Input smiles": "CCN1CCN(c2ccc(Nc3ncnc(Oc4ccc5c(cc(C)n5C)c4F)c3F)cc2)CC1",
    "Measured quantity": "inhibition at 1 µM",
    "Recorded result": "13%"
  }
]

====

- System name: Abl kinase (Homo sapiens, UniProt P00519)
- Construct: purchased Millipore (KinaseProfiler Service)
- Sequence (P00519 whole entry): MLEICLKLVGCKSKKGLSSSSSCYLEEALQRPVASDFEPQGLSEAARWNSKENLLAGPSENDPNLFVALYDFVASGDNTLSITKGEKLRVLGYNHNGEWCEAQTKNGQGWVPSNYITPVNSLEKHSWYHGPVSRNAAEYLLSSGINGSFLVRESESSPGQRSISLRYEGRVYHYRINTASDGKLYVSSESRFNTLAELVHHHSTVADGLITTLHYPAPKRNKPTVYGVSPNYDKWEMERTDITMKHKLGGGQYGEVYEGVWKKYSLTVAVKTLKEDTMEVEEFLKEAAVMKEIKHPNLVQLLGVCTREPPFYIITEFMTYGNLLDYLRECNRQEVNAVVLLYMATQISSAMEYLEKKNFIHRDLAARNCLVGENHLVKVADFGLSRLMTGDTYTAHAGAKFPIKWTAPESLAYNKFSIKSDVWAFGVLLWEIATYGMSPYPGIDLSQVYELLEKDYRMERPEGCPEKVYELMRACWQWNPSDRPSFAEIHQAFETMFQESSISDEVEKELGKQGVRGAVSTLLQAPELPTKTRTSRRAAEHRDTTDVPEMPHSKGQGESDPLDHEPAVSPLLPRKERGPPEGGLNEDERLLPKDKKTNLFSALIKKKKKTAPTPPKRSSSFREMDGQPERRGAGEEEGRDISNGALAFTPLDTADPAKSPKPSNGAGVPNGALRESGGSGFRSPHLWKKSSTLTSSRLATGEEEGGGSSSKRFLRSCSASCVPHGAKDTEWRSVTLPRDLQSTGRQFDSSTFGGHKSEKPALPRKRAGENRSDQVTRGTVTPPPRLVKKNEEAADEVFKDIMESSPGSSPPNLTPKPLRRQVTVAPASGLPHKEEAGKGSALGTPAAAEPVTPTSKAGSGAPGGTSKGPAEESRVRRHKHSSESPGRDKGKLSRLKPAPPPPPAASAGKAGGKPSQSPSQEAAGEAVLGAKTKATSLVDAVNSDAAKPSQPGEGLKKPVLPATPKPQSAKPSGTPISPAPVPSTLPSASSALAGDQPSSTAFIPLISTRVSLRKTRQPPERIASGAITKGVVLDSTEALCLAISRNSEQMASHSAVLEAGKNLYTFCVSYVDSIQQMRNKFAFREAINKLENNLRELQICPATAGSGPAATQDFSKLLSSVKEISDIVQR
- Run description: KinaseProfiler kinase inhibition assay, Abl
- Format: biochemical
- Experimental setup: 1 μM compound
Collected inhibition at 1 µM values appear next to each entry.

[
  {
    "Compound": "CC(=O)N1CCN(c2ccc(Nc3cc(Oc4cc(F)c5[nH]c(C)cc5c4F)ncn3)cc2)CC1 [Compound 50]",
    "inhibition at 1 µM": "36%"
  },
  {
    "Compound": "Cc1cc2c(F)c(Oc3ncnc(Nc4ccc(N5CCN(C)CC5)cn4)c3F)ccc2[nH]1 [Example 27]",
    "inhibition at 1 µM": "4%"
  },
  {
    "Compound": "Cc1cc2c(F)c(Oc3ncnc(Nc4ccc(N5CCN(C)CC5)cc4)c3F)ccc2[nH]1 [Example 24]",
    "inhibition at 1 µM": "0%"
  },
  {
    "Compound": "CCN1CCN(c2ccc(Nc3ncnc(Oc4cc(F)c5[nH]c(C)cc5c4F)c3C#N)nc2)CC1 [Compound 61]",
    "inhibition at 1 µM": "3%"
  },
  {
    "Compound": "Cc1cc2c(F)c(Oc3ncnc(Nc4ccc(N5CCN(C)CC5)cn4)c3C)ccc2[nH]1 [Compound 41]",
    "inhibition at 1 µM": "2%"
  },
  {
    "Compound": "Cc1cc2c(F)c(Oc3ncnc(Nc4ccc(N5CCN(C)CC5)cc4)c3C)ccc2[nH]1 [Compound 40]",
    "inhibition at 1 µM": "2%"
  },
  {
    "Compound": "Cc1cc2c(F)c(Oc3cc(Nc4cccc(N5CCN(C)CC5)c4)ncn3)ccc2[nH]1 [Example 13]",
    "inhibition at 1 µM": "41%"
  },
  {
    "Compound": "COc1c(Nc2ccc(N3CCN(C)CC3)cn2)ncnc1Oc1ccc2[nH]c(C)cc2c1F [Compound 44]",
    "inhibition at 1 µM": "-6%"
  },
  {
    "Compound": "CCN1CCN(c2ccc(Nc3ncnc(Oc4cc(F)c5[nH]c(C)cc5c4F)c3C#N)cc2)CC1 [Compound 60]",
    "inhibition at 1 µM": "-7%"
  },
  {
    "Compound": "Cc1cc2c(F)c(Oc3ncnc(Nc4ccc(N5CCN(C)CC5)cc4)c3N)ccc2[nH]1 [Compound 46]",
    "inhibition at 1 µM": "-13%"
  },
  {
    "Compound": "Cc1cc2c(F)c(Oc3ncnc(Nc4cc(C5CC5)n[nH]4)c3F)ccc2[nH]1 [Compound 32]",
    "inhibition at 1 µM": "0%"
  },
  {
    "Compound": "CCN1CCN(c2ccc(Nc3ncnc(Oc4ccc5[nH]c(C)cc5c4F)c3C#N)nc2)CC1 [Compound 55]",
    "inhibition at 1 µM": "2%"
  },
  {
    "Compound": "COc1ccc(-c2cc(Nc3cc(Oc4ccc5[nH]c(C)cc5c4F)ncn3)n[nH]2)cc1OC [Example 5]",
    "inhibition at 1 µM": "63%"
  },
  {
    "Compound": "CNC(=O)c1ccc(Nc2cc(Oc3ccc4[nH]c(C)cc4c3F)ncn2)cc1 [Example 12]",
    "inhibition at 1 µM": "18%"
  },
  {
    "Compound": "Cc1cc2c(F)c(Oc3cc(Nc4cc(C5CC5)[nH]n4)ncn3)ccc2[nH]1 [Example 16]",
    "inhibition at 1 µM": "64%"
  },
  {
    "Compound": "Cc1cc2c(F)c(Oc3cc(Nc4ccc(N5CCNCC5)cc4)ncn3)ccc2[nH]1 [Example 11]",
    "inhibition at 1 µM": "60%"
  },
  {
    "Compound": "Cc1cc2c(F)c(Oc3cc(Nc4ccc(N5CCOCC5)cc4)ncn3)ccc2[nH]1 [Example 9]",
    "inhibition at 1 µM": "21%"
  },
  {
    "Compound": "COc1c(Nc2ccc(N3CCN(C)CC3)cc2)ncnc1Oc1ccc2[nH]c(C)cc2c1F [Compound 43]",
    "inhibition at 1 µM": "-10%"
  },
  {
    "Compound": "CCN1CCN(c2ccc(Nc3ncnc(Oc4ccc5[nH]c(C)cc5c4F)c3F)nc2)CC1 [Example 29]",
    "inhibition at 1 µM": "-7%"
  }
]
